Test system: Escherichia coli
Test summary: Antibacterial activity against Escherichia coli by CLSI protocol based method
Format: functional
Calls of active or inactive are those of the source. No cut-off for these calls is given here.
Assay readout: MIC

1) COc1cc(-c2coc3cc4c(c(O)c3c2=O)C=CC(C)(C)O4)c(OC)cc1OCC=C(C)C; inactive
2) CC1(C)C=Cc2c(c(CCO)c3occ(-c4ccc(O)c(O)c4)c(=O)c3c2O)O1; 128 µg/mL
3) CC(C)=CCOc1ccc(-c2coc3cc(OCC=C(C)C)cc(O)c3c2=O)cc1; inactive
4) COc1c2c(cc3occ(-c4ccc(OCC=C(C)C)cc4O)c(=O)c13)OC(C)(C)C=C2; inactive
5) C=CC(C)(C)c1cc(-c2coc3cc4c(c(O)c3c2=O)C=CC(C)(C)O4)ccc1O; inactive
6) CC(C)=CCC1=C(O)c2c(occ(-c3ccc(O)c(O)c3)c2=O)C(CC=C(C)C)(CC=C(C)C)C1=O; 128 µg/mL
7) COc1c2c(cc3c1C(=O)[C@]1(O)c4ccc(OCC=C(C)C)cc4O[C@@H]1O3)OC(C)(C)C=C2; inactive
8) CC(C)=CCc1c2c(c(O)c3c(=O)c4c(oc5cc(O)ccc54)oc13)C=CC(C)(C)O2; inactive
9) C=CC(C)(C)c1cc(-c2coc3cc4c(c(OC)c3c2=O)C=CC(C)(C)O4)c(O)cc1O; 128 µg/mL
10) CC(C)=CCc1c(O)c(CC=C(C)C)c2occ(-c3ccc(O)c(O)c3)c(=O)c2c1O; 128 µg/mL
11) CC(C)=CCOc1ccc2c(c1)O[C@@H]1Oc3cc4c(c(O)c3C(=O)[C@]21O)C=CC(C)(C)O4; inactive
12) COc1cc(O)c2c(=O)c(-c3ccc(OCC=C(C)C)cc3)coc2c1; inactive
13) COc1c2c(cc3occ(-c4ccc(OCC=C(C)C)c(O)c4)c(=O)c13)OC(C)(C)C=C2; inactive
